Assay: protein stability index of a GFP-peptide fusion (GPS, HEK-293T) (PSI 1-6); higher = more stable;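 note: 24-mer peptide tiles fused after GFP, lentivirally expressed, FACS-sorted into six equal bins by GFP/DsRed ratio, decoded by Illumina sequencing, PSI is the read-weighted mean bin number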
Conditions: treatment: DMSO; c terminus: a fixed tail appended
Here the recorded protein stability index is given for each entry.
parameter: protein stability index

sequenceText: RDFRPTDQEEIKTLERYMCSRFFI [TENT5C]
parameter: protein stability index
result: 2.63
//
sequenceText: MSWAKLARQATNLKVNFFFERIMK [FBXO39]
parameter: protein stability index
result: 2.34
//
sequenceText: GKYDSGIPPYSRASLKGYQWLKDK [KCNAB2]
parameter: protein stability index
result: 3.26
//
sequenceText: PCELPCKEYDVARNTGAYTSSGLA [TEKT4]
parameter: protein stability index
result: 4.18
//
sequenceText: REHRVRRIHVRRHITHDERPHGQQ [KCTD13]
parameter: protein stability index
result: 4.36
//
sequenceText: RDAGATPSAAGAPASAPGEPRQRR [ANKRD9]
parameter: protein stability index
result: 5.57
//
sequenceText: SIARLEMGPDEYEEMEEEEEEEEE [FBXO3]
parameter: protein stability index
result: 5.41
//
sequenceText: NSDQTTCRIQDLCAMEDHNCEQLC [MATN2]
parameter: protein stability index
result: 4.04
//
sequenceText: RSVSLSMRKSGAMKKGGIFSAEFL [BNIP3L]
parameter: protein stability index
result: 2.8
//
sequenceText: YVLEFSDHPGIHEPLEPEVKYVGN [CPN1]
parameter: protein stability index
result: 3.17
//
sequenceText: GQLDEKEKDLVGLAQIAEVLEMFD [RHOBTB1]
parameter: protein stability index
result: 3.4
//
sequenceText: VLGPLVALIICYNWLHRRLAGQFL [MOG]
parameter: protein stability index
result: 3.15
//
sequenceText: MEVLPCSRVAHIERTRKPYNNDID [GALNT9]
parameter: protein stability index
result: 2.46
//
sequenceText: GTPMALIVISYIHVAAAVLRIRSV [OR3A1]
parameter: protein stability index
result: 3.16
//
sequenceText: KLPLQIDCLAAWEEWLLVGTKQGH [VPS39]
parameter: protein stability index
result: 2.43
//
sequenceText: QYTVPGTEGVTQLKLTVVEDVTVG [ZFYVE21]
parameter: protein stability index
result: 3.86
//
sequenceText: VSLTSPSAPPTSRTSSGNVWVTHE [PPFIA4]
parameter: protein stability index
result: 3.35
//
sequenceText: QLLEDAILIIQGVLSDINLKKGES [NET1]
parameter: protein stability index
result: 3.37
//
sequenceText: QEYAAKIINTKKLSARDHQKLERE [CAMK2A]
parameter: protein stability index
result: 4.71
//
sequenceText: KLVADFQRYILYWRKRFTEQPITD [ZNF277]
parameter: protein stability index
result: 1.99
//
sequenceText: GYKSNQVRGLYDFYLPREELWIYN [KLHDC2]
parameter: protein stability index
result: 2.44
//
sequenceText: PVPVIVSNFNYFYHRETEGEEQSQ [KCNA3]
parameter: protein stability index
result: 3.81
//
sequenceText: MTAPAGPRGSETERLLTPNPGYGT [MCOLN1]
parameter: protein stability index
result: 4.23
//
sequenceText: ESPSTLQVLPDSESLPRSEIDEKV [MAGEA10]
parameter: protein stability index
result: 5.62
//
sequenceText: APEYFEKNEPYLEAACNDVDRWPA [DENND6A]
parameter: protein stability index
result: 4.59
//
sequenceText: RWTFEKACHPFLLGPPLVRKRIHD [TOR1AIP2]
parameter: protein stability index
result: 2.64

====

Here the recorded protein stability index is given for each entry.
Experiment: protein stability index of a GFP-peptide fusion (GPS, HEK-293T) (PSI 1-6); higher = more stable
Details: treatment: DMSO; c terminus: a fixed tail appended
parameter: protein stability index

sequenceText: QEEEQAETPMAPVPLGPLGETYCE [TRIM15]
quantitativeResult: 5.4
//
sequenceText: LQANDVFHKQQWFNCIRAAIAPFQ [NET1]
quantitativeResult: 2.14
//
sequenceText: SHQELHRELLMNHRRGLGVDSKPE [FAM107A]
quantitativeResult: 4.61
//
sequenceText: AFYKEQLARLEERSSEFYRVTTEQ [CHCHD3]
quantitativeResult: 3.29
//
sequenceText: TFEQAIQAASRIIRNEQFAIRRFQ [CDC25B]
quantitativeResult: 2.38
//
sequenceText: HVQDPQNTVKVQVLYPDGQAQMIH [INTS4]
quantitativeResult: 3.74
//
sequenceText: RCEELEDARYKLHHHLHKTLREIT [TEKT4]
quantitativeResult: 2.81

====

Assay: protein stability index of a GFP-peptide fusion (GPS, HEK-293T) (PSI 1-6); higher = more stable
Details: treatment: MLN4924 1 uM, 8 h; c terminus: a fixed tail appended
Assign class by protein stability index: not lower than 3 means true (1); lower than 3 means false (0).

sequenceText: NCKLATRAKDFLPADIQAQFAISR [SNX8]
answerLabel: false (0)
--
sequenceText: FREVYVGKETMCTVDGLHFNSTYN [TRIM9]
answerLabel: false (0)
--
sequenceText: KPKMNYEKLSRGLRYYYDKNIIHK [ETS2]
answerLabel: false (0)
--
sequenceText: PPPHLLPEKHQVPEKLIWGDQDPL [WDR88]
answerLabel: true (1)
--
sequenceText: GSNYANFELDLGKKVLNLLKGAFP [PTPN9]
answerLabel: false (0)
--
sequenceText: KHTVKEHECKLTQEILELIDREVD [IQUB]
answerLabel: true (1)
--
sequenceText: NSDQTTCRIQDLCAMEDHNCEQLC [MATN2]
answerLabel: true (1)
--
sequenceText: PMDLSTVKRKMDGREYPDAQGFAA [BRD3]
answerLabel: true (1)
--
sequenceText: FRVGKKIGCGNFGELRLGKNLYTN [CSNK1G3]
answerLabel: false (0)
--
sequenceText: RVTNVGSLLLTPQENESLFTFLGK [WASL]
answerLabel: true (1)
--
sequenceText: QLEVTCTPYLKETLNSIWNVEDHI [POMT2]
answerLabel: false (0)
--
sequenceText: NKQAYDLAKALLKRTAQAIEPYIT [PDS5B]
answerLabel: false (0)
--
sequenceText: THRDRPSQQQPLRNQVVSSTNGEL [CSNK1G1]
answerLabel: true (1)
--
sequenceText: QEQVAGGEAQPGLPQEDPSTSQGC [FEM1A]
answerLabel: true (1)
--
sequenceText: KAVCGKCSSKRSSIPLMGFEFEVR [WDFY2]
answerLabel: false (0)
--
sequenceText: IPEKDMDERRRLLEQKTQESQKKK [ZNF207]
answerLabel: true (1)
--
sequenceText: IVGIVEKGNRTARIIDKPRVIEVL [SEPHS2]
answerLabel: false (0)
--
sequenceText: QVQLGLRCCGAASYQDWQQNLYFN [TSPAN10]
answerLabel: false (0)
--
sequenceText: VELLKNLTKYPTDRDSIWKCLKFL [INTS4]
answerLabel: false (0)
--
sequenceText: KAVFGKHGPISEVLLIKDRTSKSR [RBMY1A1]
answerLabel: true (1)
--
sequenceText: NSASDPSLKDGLSDSDSELSSSEG [PSD2]
answerLabel: true (1)
--
sequenceText: HARTHPQTALLESSCENKRADLVF [MATN2]
answerLabel: true (1)
--
sequenceText: DESVVMPESQMCRKFSRECEDQKQ [NEUROD6]
answerLabel: true (1)
--
sequenceText: QIVTKKIDLSHVTSKCGSLKNIRH [MAP2]
answerLabel: false (0)

====

Assay: protein stability index of a GFP-peptide fusion (GPS, HEK-293T) (PSI 1-6); higher = more stable
Settings: treatment: DMSO; c terminus: a fixed tail appended
Here the recorded protein stability index is given for each entry.

sequenceText: TREGFTLLHLAVNSNTPVDDFHTN [FEM1B]
protein stability index: 2.85
--
sequenceText: EESFRQMVVIHKEIPTGKKDHECS [ZNF232]
protein stability index: 4.84
--
sequenceText: AEEHREKLLKQMRILWKKIQENQR [TRIM43]
protein stability index: 2.46
--
sequenceText: PPPHLLPEKHQVPEKLIWGDQDPL [WDR88]
protein stability index: 4.53
--
sequenceText: SEVTELRRVLQGLEIELQSQLSMK [KRT16]
protein stability index: 2.33
--
sequenceText: LEWNSLGTWDDAFATFCGGLAANG [LRRC45]
protein stability index: 2.52
--
sequenceText: VGIFNTVINPMLNPIIYSFRNPDV [OR3A1]
protein stability index: 2.34
--
sequenceText: PDECGKTEFTRFLCSSPLEAETPP [ATE1]
protein stability index: 4.8
--
sequenceText: SQQQPLRNQVVSSTNGELNVDDPT [CSNK1G1]
protein stability index: 5.36

====

Here the recorded protein stability index is given for each entry.
Assay: protein stability index of a GFP-peptide fusion (GPS, HEK-293T) (PSI 1-6); higher = more stable
Conditions: treatment: MLN4924 1 uM, 8 h; c terminus: a fixed tail appended
parameter: protein stability index

sequenceText: LRSPNNFLSYYRLTRFLSRVIKCD [CCND1]
result: 2.44
//
sequenceText: SLERGTALFAQVQRGALPAPDPEL [RSAD1]
result: 4.41
//
sequenceText: MHSFPPLLLLLFWGVVSHSFPATL [MMP1]
result: 3.12
//
sequenceText: LVNPLDPRNADKIRVKIADLGNAC [SRPK2]
result: 2.97
//
sequenceText: KEGARNIRTSERVTLIVDNTRFVV [BTBD10]
result: 2.29
//
sequenceText: AVLPTAFRVAKKRAPKVLGTTLVV [GDAP1]
result: 2.15
//
sequenceText: SGESGLRRRGSDPASGEVEASQLR [TMEM40]
result: 5.51
//
sequenceText: TQSDLYKKTQETLSQAGQKTSAAL [TPD52L2]
result: 4.93
//
sequenceText: APQGGMAALNMSLGMVTPVNDLRG [ADD1]
result: 3.77
//
sequenceText: LFPASPTREAHRESSVPVTPSVPP [FBF1]
result: 4.84
//
sequenceText: DSSLHWSSSYSPETFRQQFRQFGY [ZNF396]
result: 2.56
//
sequenceText: QIYHCTKRKEEECSTTDHPYKKPY [TBX5]
result: 4.25
//
sequenceText: LPLETARESPSFKLEPMETERSPG [ZNF263]
result: 5.36

The reported measurements were obtained from the supplement of paper PMC10567573.
